Data provenance: ChEMBL document CHEMBL1136069

- target-system: Melanocortin receptor 5 (Mus musculus)
- Sequence (P41149 whole entry): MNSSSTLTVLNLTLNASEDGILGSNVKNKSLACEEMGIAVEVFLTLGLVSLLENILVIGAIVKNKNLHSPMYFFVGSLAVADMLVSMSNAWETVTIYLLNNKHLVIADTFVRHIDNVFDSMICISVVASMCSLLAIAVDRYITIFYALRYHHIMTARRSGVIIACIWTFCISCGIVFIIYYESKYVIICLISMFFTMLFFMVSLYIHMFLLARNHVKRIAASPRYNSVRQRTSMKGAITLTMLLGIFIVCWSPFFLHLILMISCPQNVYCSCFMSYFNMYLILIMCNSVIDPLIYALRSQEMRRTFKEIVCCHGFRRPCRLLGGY
- assay-overview: Agonist activity on mouse melanocortin 5 receptor (mMC5R) stably expressed in […] cells
readout-kind: EC50 (µM)

A. NCCCCNC(=O)[C@H](Cc1ccc(OCc2ccccc2)cc1)NC(=O)NCc1ccccc1
B. NCCCNC(=O)[C@H](Cc1c[nH]c2ccccc12)NC(=O)NCc1ccccc1
C. NCCCCNC(=O)[C@H](Cc1c[nH]c2ccccc12)NC(=O)NC1CCN(Cc2ccccc2)CC1
Query: Rank by decreasing EC50 the items listed here. A ranking is expressed here by listing the labels in the requested order.
Response: B, A, C
(B: 39.9 µM, A: 14.4 µM, C: 8.2 µM)

====

- target-system: Melanocortin receptor 3 (Mus musculus, UniProt P33033)
- Sequence (P33033 whole entry): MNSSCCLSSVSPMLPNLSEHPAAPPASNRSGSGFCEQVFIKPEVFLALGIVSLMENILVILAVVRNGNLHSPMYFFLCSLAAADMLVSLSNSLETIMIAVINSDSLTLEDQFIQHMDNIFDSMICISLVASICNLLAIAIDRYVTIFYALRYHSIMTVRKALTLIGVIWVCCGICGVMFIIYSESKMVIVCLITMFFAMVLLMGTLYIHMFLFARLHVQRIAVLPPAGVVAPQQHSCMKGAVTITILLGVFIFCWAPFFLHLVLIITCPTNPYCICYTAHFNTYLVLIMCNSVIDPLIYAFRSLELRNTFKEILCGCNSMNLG
- assay-overview: Agonist activity on mouse Melanocortin 3 receptor (mMC3R) stably expressed in HEK cells
pEC50: −log10 of the molar value.
readout-kind: pEC50

Record excerpt, results attached:
NCCCCNC(=O)[C@@H](Cc1c[nH]c2ccccc12)NC(=O)NCc1ccccc1 ... 4.00
NCCCCNC(=O)[C@H](Cc1c[nH]c2ccccc12)NC(=O)NN1CCc2ccccc2C1 ... 5.77

1. CC1CCN(CNC(=O)[C@H](Cc2c[nH]c3ccccc23)NC(=O)NCc2ccccc2)CC1
2. NCc1ccc(NC(=O)[C@H](Cc2c[nH]c3ccccc23)NC(=O)NCc2ccccc2)cc1
Query: Between item 1 and item 2 , which reported pEC50 is smaller? Indicate which entry you chose by stating its label.
Response: 2
(2: 4.97, 1: 5.36)

====

- target-system: Melanocyte-stimulating hormone receptor (Mus musculus, UniProt Q01727)
- Sequence (Q01727 whole entry): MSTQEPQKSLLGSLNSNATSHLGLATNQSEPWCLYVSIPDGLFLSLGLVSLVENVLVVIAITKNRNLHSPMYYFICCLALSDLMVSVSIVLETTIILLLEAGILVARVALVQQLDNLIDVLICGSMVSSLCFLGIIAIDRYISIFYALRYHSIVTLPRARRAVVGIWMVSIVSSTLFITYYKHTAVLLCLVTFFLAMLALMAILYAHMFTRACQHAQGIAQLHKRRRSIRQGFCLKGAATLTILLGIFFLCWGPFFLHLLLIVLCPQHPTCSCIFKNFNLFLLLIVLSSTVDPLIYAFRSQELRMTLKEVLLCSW
- assay-overview: Agonist activity on mouse melanocortin 1 receptor (mMC1R) stably expressed in HEK cells
readout-kind: EC50 (µM)

Record excerpt, results attached:
NCCCCNC(=O)[C@H](Cc1ccc(OCc2ccccc2)cc1)NC(=O)NCc1ccccc1 ... 20.5
NCCCCNC(=O)[C@H](Cc1c[nH]c2ccccc12)NC(=O)NCc1ccccc1 ... 55
NCCCCNC(=O)[C@@H](Cc1c[nH]c2ccccc12)NC(=O)NCc1ccccc1 ... 42.4

P. CC1CCN(CNC(=O)[C@H](Cc2c[nH]c3ccccc23)NC(=O)NCc2ccccc2)CC1
Q. NCCCCCNC(=O)[C@H](Cc1c[nH]c2ccccc12)NC(=O)NCc1ccccc1
R. NCCCNC(=O)[C@H](Cc1c[nH]c2ccccc12)NC(=O)NCc1ccccc1
S. NCc1ccc(NC(=O)[C@H](Cc2c[nH]c3ccccc23)NC(=O)NCc2ccccc2)cc1
Query: // sort entries: EC50, high to low A ranking is expressed here by listing the labels in the requested order.
Response: R, Q, P, S

====

- target-system: Melanocortin receptor 3 (Mus musculus)
- assay-overview: Agonist activity on mouse Melanocortin 3 receptor (mMC3R) stably expressed in HEK cells
pEC50: −log10 of the molar value.
readout-kind: pEC50

Record excerpt, results attached:
Cc1cccc(CNC(=O)[C@H](Cc2c[nH]c3ccccc23)NC(=O)NCc2ccccc2)c1 ... < 4.00
NCCCCNC(=O)[C@H](Cc1ccc(OCc2ccccc2)cc1)NC(=O)NCc1ccccc1 ... < 4.00
NCCCCNC(=O)[C@H](Cc1c[nH]c2ccccc12)NC(=O)NCCc1ccccc1 ... < 4.00
NCCCCNC(=O)[C@H](Cc1c[nH]c2ccccc12)NC(=O)NN1CCC(Cc2ccccc2)CC1 ... 4.00

Next, consider the following compound.
Query: Dear colleague, I am looking for the recorded pEC50 of the following compound: `NCCCCNC(=O)[C@H](Cc1c[nH]c2ccccc12)NC(=O)NCc1ccccc1`
Response: < 4.00
